What inhibition was measured for each of the following?
ASSAYED SYSTEM: UniProtKB Q86831
Sequence (Q86831 as listed by the source): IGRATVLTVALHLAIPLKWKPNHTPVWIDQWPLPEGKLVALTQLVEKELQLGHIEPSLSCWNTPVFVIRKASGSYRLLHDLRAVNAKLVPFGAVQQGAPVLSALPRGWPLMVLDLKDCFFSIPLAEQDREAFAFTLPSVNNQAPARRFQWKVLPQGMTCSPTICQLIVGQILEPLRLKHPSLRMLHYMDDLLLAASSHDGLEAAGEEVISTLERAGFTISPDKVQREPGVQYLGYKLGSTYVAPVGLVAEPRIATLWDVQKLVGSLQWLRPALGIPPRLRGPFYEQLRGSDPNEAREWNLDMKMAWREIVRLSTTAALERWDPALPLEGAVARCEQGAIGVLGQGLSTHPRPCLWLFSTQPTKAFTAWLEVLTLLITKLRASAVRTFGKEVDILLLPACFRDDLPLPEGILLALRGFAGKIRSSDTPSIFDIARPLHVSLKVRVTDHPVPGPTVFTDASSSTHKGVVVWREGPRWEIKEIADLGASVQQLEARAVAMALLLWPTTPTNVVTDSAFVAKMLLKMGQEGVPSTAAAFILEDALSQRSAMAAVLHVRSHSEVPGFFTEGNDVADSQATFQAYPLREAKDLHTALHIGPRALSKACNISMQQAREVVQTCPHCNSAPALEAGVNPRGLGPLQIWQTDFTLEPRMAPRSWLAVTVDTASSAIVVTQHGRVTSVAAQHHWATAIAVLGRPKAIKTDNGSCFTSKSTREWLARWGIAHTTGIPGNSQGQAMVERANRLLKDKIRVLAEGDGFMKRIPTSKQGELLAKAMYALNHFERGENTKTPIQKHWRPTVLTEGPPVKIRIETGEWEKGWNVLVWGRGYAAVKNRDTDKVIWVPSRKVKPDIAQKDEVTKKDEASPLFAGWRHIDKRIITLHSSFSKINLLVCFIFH
RUN DESCRIPTION: Inhibition of Avian myeloblastosis virus reverse transcriptase
Design: concentration or dose not given beside the values
CONDITION INFO: concentration not given here

[
  {
    "MOLECULE SMILES": "COc1c(OC(C)=O)cc2oc(-c3ccccc3)cc(=O)c2c1O",
    "inhibition": "18.3%"
  }
]

Provide reported inhibition for each item, in the same order as listed.
1. COc1cc(-c2oc3cc(O)ccc3c(=O)c2O)ccc1O
2. COc1cc(O)c2c(=O)c(O)c(-c3ccc(OC)c(O)c3)oc2c1
3. COc1ccc(-c2oc3cc(O)cc(O)c3c(=O)c2O)cc1O

a:
1. 52.7%
2. 68.1%
3. 59.7%
